measurementName: melting point

O=[N+]([O-])c1ccc(Sc2cccc3cnccc23)nc1 : 115 to 117 °C
CCCc1cc(-c2[nH]c3ccccc3c2C)cc(CCC)c1O : 102 °C
CCOC(=O)C(=NO)C(=O)c1ccc(Br)cc1 : 149 °C
COc1cc2c(cc1F)C1(CO2)C(=O)N(Cc2ccccn2)c2ccccc21 (stereo not given) : 142 to 144 °C
O=C(NCCc1ccccc1)[C@@H]1Cc2ccccc2N1S(=O)(=O)c1cccc(CNC(=O)C(F)(F)F)c1 : 70 °C
O=C(Cc1ccccc1)Nc1cc(Cl)c(Cl)cc1[N+](=O)[O-] : 116 to 118 °C

Given the compound CC(=O)NCc1ccc(CO)cc1[N+](=O)[O-] , what is its reported melting point?
133 to 135 °C

Next entry: c1ccc2c(c1)c(-c1cc3nccnc3[nH]1)cn2CCCN1CCCCC1
240 °C

Next entry: Cc1nn(C)c(C(=O)N(C)C)c1Nc1ccccc1[N+](=O)[O-]
144 to 146 °C

Next entry: CCCCCCC(C)(C)c1cc(O)c2c(c1)oc(=O)c1ccc(OC)cc12
149 to 151 °C

Next entry: CCCCCCCCCCCCC1=C(OCC)C(=O)c2ccccc2C1=O
36 to 38 °C

Next entry: COC(=O)c1ccccc1NC(=O)Cl
80 to 82 °C

Next entry: CCN(CC)c1ccc(C2OC(C)(C)N=C2c2ccccc2)cc1 (stereo not given)
104 to 105 °C

Next entry: CC1(C)C(=O)N(c2ccc([N+](=O)[O-])c(C(F)(F)F)c2)C(=O)N1CCCCN1C(=O)N(c2ccc([N+](=O)[O-])c(C(F)(F)F)c2)C(=O)C1(C)C
211 to 212 °C

Next entry: O=C(O)c1nc2c(=O)[nH]c3cc(C(F)(F)F)ccc3n2c1CP(=O)(O)O
> 250 °C

Next entry: CCOC(=O)c1ccc(NC(=O)c2ccc3c(c2)OCC(C)(C)CO3)cc1
181 to 182 °C

Next entry: O=C(c1cccs1)c1cc(Cc2ccccc2)c(O)c2ccccc12
150 to 152 °C

Next entry: CCOCc1nc2c(N)nc3cc(-c4cccc(C(=O)N5CCOCC5)c4)cnc3c2n1CC(C)C
185 to 187 °C

Next entry: CC(C)c1n[nH]c2c(NCc3ccccc3)ncnc12
153 to 154 °C

Next entry: COCC(=O)Nc1nc2ccc(F)cc2s1
139 to 140 °C

Next entry: CC(=O)Nc1cc(C)c(OC(C)=O)cc1C
177 °C

====

measurementName: melting point

CC(=O)Nc1ccc(C(=O)O)c(O)c1 : 221 to 223 °C
CCCCC(=O)Nc1cscc1N : 110 °C

Now look at this entry.
Given the molecule O=C1c2cc3nnn(CC4(c5cccc(F)c5)CC4)c(=O)c3cc2OC2CCCN12 (stereo not given) , what is its reported melting point?
162 to 163 °C

====

measurementName: melting point

Below, 5 molecules whose answers are already recorded.
O=C(c1cccc(C(F)(F)F)c1)c1cc2c(Br)cccc2o1 : 91 to 92 °C
CCOC(=O)C(C(=O)OCC)N1CC(N2C(=O)c3ccccc3C2=O)C1=O (stereo unspecified) : 149 to 150 °C
CCCCc1nc2cccc(C(=O)NC(C)C)c2n1Cc1ccc(-c2ccccc2-c2nnn[nH]2)cc1 : 247 to 249 °C
Nc1ccnc(CSCCO)n1 : 131 to 134 °C
O=C(NCC(=O)N1CCSC1)c1cc2cc(Cl)ccc2[nH]1 : 253 to 255 °C

Now look at this entry.
Given the molecule Nc1nc(=O)n(C2CC(O)C(CO)O2)cc1-c1ccccn1 (stereo unspecified) , what is its reported melting point?
197 to 198 °C

====

Property: melting point; scope: individual compounds

Below, 3 compounds whose answers are already recorded.
CCOC(=O)C(=O)Nc1ccc(C#N)cc1 : 188 °C
O=CNc1nc(C(=NOC(=O)C(Cl)Cl)C(=O)O)ns1 : 123 °C
Cc1ccc(C)c(S(=O)(=O)c2ccc(F)c3ccccc23)c1 : 142 to 143 °C

Given the compound CCn1cc(C(=O)O)c(=O)c2cc(F)c(N3CCSCC3)c(F)c21 , what is its reported melting point?
> 300 °C

====

measurementName: melting point

Below, 2 compounds whose answers are already recorded.
COc1ccc(C(CCCCC(=O)O)C2=C(C)C(=O)c3ccccc3C2=O)cc1 (stereo not drawn) : 68 to 71 °C
CCC(Oc1ccc(CCC(=O)c2ccc(-c3ccc(C(F)(F)F)cc3)s2)cc1Br)C(=O)O (stereo not drawn) : 126 to 128 °C

Given the compound Cc1nnc(CNC(=O)CNC(=O)CN)n1-c1ccc(Cl)cc1C(=O)c1ccccc1Cl , what is its reported melting point?
60 to 65 °C

====

measurementName: melting point

Below, 2 compounds whose answers are already recorded.
CCCOc1ccccc1Nc1ncc(C(=O)O)c(=O)[nH]1 : 202 to 204 °C
Oc1cccc2c3ccccc3n(C3CCCCO3)c12 (stereo not drawn) : 137 to 140 °C

Now look at this entry.
Given the compound CCN(CC)C(=O)c1ccoc1-c1ccc(C(F)(F)F)cc1 , what is its reported melting point?
45 to 48 °C

====

Property: melting point; scope: individual molecules

Clc1ccc2[nH]c3c(c2c1)CCC1(C3)OCCO1 : 128 to 138 °C
O=C1OC(=O)C2=C1SCC(c1ccccc1)S2 (configuration not stated) : 131 to 133 °C
CCOC(=O)[C@H](C)NCC(=O)Nc1c2c(nc3ccccc13)CCCC2 : 101 to 102 °C

Given the molecule Cc1cn(C2CC(OP(N)O)C(CO[Si](C)(C)C(C)(C)C)O2)c(=O)[nH]c1=O (configuration not stated) , what is its reported melting point?
68 to 70 °C

Next entry: NC(=O)CNC(=O)c1ccnc(-c2ccc3c(c2)C(c2ccc(Cl)cc2Cl)CC3)c1 (configuration not stated)
168 to 170 °C

Next entry: CC(=O)OCC1=C(C(=O)OC(C)(C)C)N2C(=O)C(NC(=O)Cn3ccnc3S(C)(=O)=O)C2SC1 (configuration not stated)
164 °C

Next entry: O=c1c2c[nH]c3ccccc3c-2nn1-c1cnc2ccccc2c1
> 350 °C

Next entry: CCCCCCCCCCCCCCCCCCNC(=O)Nc1ccc(O)cc1
144 °C

Next entry: CN(C(=O)On1ccnn1)c1ccccc1
105 to 106 °C

Next entry: CN1C(=O)[C@@H](CN2CCCCC2)C[C@H]1c1ccc(Br)cc1
55 to 58 °C

Next entry: COC(=S)NC1(N=NC(C)(C)C)CCCCC1
79 to 82 °C

Next entry: CCc1nc2c(cnn2CC)c(NC2CCOCC2)c1CNC(=O)c1cccc(C(=O)NCc2cc(Cl)cc(-c3cccc(CN4CC5CC4CN5)c3)c2)c1 (configuration not stated)
130 to 133 °C

Next entry: COc1ccc2c3c(cn2S(=O)(=O)c2c(C(C)C)cc(C(C)C)cc2C(C)C)C[C@H]2N(C)C(=O)CO[C@]2(C)c13 (relative stereo)
155 to 157 °C

Next entry: O=c1[nH]c2c(Cl)cc(Cl)cc2c(=O)n1CCCN1CC=C(c2ccc(Cl)cc2)CC1
197 to 199 °C

====

Property: melting point; scope: individual compounds

O=[N+]([O-])c1ccccc1S(=O)(=O)c1ccc(Cl)cc1 : 136 to 138 °C
CC(C)OC(=O)NC(=O)C(c1ccccc1)c1ccccc1 : 122 to 124 °C
CCn1c(-c2ccc(-n3ccnc3)cc2)cnc1[C@H](Cc1ccccn1)N(C=O)c1cc2cc(C(F)(F)F)ccc2o1 : 85 to 89 °C
CN1C(=O)C(c2c[nH]c3ncccc23)=C(c2cn(S(=O)(=O)c3ccccc3)c3ncccc23)C1=O : 198 °C
COc1cc2ccc(C(=O)c3ccccc3)cc2cc1OC : 124 to 125 °C
O=c1ccc(S(=O)(=O)n2ccc3ccccc32)n[nH]1 : 169 to 170 °C

Given the compound CC(C)Cn1c(=O)n(C)c(=O)c2cnc(N)nc21 , what is its reported melting point?
249 to 250 °C

Next entry: CCOC(=O)C(C(=O)Nc1ccc(Br)cc1C)[N+](=O)[O-] (configuration not stated)
126 to 129 °C

Next entry: CC(=O)n1cc(Cl)c(-c2cccc(C(F)(F)F)c2)c1
70 to 71.5 °C

Next entry: COC(=O)[C@H](Cc1ccc(OCCN2CCCCCC2)cc1)NC(=O)[C@@H]1CCCN1S(=O)(=O)c1ccc(C)cc1
60 to 65 °C

Next entry: COCOc1cc(C(F)(F)F)ccc1-c1cc(Oc2ccc3cccnc3c2)ncn1
98.8 to 99.4 °C

Next entry: COc1cc(OC)c2c(=O)[nH]c(-c3ccc(O)cc3)cc2c1
245 to 247 °C

====

Property: melting point; scope: individual molecules

Below, 5 molecules whose answers are already recorded.
CC(=NO)c1ccnc(Cl)c1 : 143 °C
Nc1ccc(Oc2ccccc2)c(Cl)c1 : 31 to 33 °C
CCOCN(C(=O)CCl)c1c(OC)cccc1OC : 95 to 97 °C
O=C(O)[C@H]1CC[C@@H](C(=O)N(Cc2ccccc2)OCc2ccccc2)C1 (relative stereo) : 118 to 120 °C
CCOC(=O)C1=C(C)Nc2nc(N3CCOCC3)nc(N3CCOCC3)c2C1c1ccccc1[N+](=O)[O-] (stereo unspecified) : 201 °C

Given the molecule CCOC(=O)COc1cc2c(C)csc2c(Cl)c1Cl , what is its reported melting point?
115 to 117 °C

Next entry: CCOc1ccc(SCCSc2ccc(OCC)cc2)cc1
90 °C

Next entry: COc1cccc2c1nc(C(F)F)n2-c1nc(N2CCOCC2)cc(N2C[C@@H](C)O[C@@H](C)C2)n1
132 to 134 °C
